- Tested on: E. rostratum hyphal fragments
- test.protocol: hyphal fragment fungicidal ATP content assay (PBS, 1536-well)
- Assay type: cell-based, Exserohilum rostratum
- protocol.conditions: Exserohilum rostratum; Table 2; 46 µM Amphotericin B = 100%; inact. = no significant activity in the primary screen; read-out: Hyphae % Max. Resp.
property.label: Emax (%)

1) N#C/C(=C1/SCC(c2ccccc2Cl)S1)n1ccnc1 (stereo not drawn)    65
2) N#C/C(=C1/SC[C@@H](c2ccc(Cl)cc2Cl)S1)n1ccnc1    82
3) Cc1cc(N)c2ccccc2[n+]1CCCCCCCCCC[n+]1c(C)cc(N)c2ccccc21 [Dequalinium dichloride]    93
4) CC1(C)CCC(=Cc2ccc(Cl)cc2)C1(O)Cn1cncn1 (stereo not drawn)    74
5) Clc1ccc(C(Cn2ccnc2)OCc2ccsc2Cl)c(Cl)c1 (stereo not drawn)    100
6) C[C@@H](c1ncncc1F)[C@](O)(Cn1cncn1)c1ccc(F)cc1F    94
7) CC[C@@H]([C@H](C)O)n1ncn(-c2ccc(N3CCN(c4ccc(OC[C@@H]5CO[C@@](Cn6cncn6)(c6ccc(F)cc6F)C5)cc4)CC3)cc2)c1=O    78
8) C=CC[C@@H]1/C=C(\C)C[C@H](C)C[C@H](OC)[C@H]2O[C@@](O)(C(=O)C(=O)N3CCCC[C@H]3C(=O)O[C@H](/C(C)=C/[C@@H]3CC[C@@H](O)[C@H](OC)C3)[C@H](C)[C@@H](O)CC1=O)[C@H](C)C[C@@H]2OC    83
9) CCC(C)(C)c1ccc(CC(C)CN2C[C@@H](C)O[C@@H](C)C2)cc1 (stereo partly drawn)    81
10) COCc1c(C(C)C)nc(C(C)C)c(/C=C/[C@@H](O)C[C@@H](O)CC(=O)O)c1-c1ccc(F)cc1 [Cerivastatin sodium]    79
11) C[C@@H]1[C@H](O)[C@@H](C)/C=C/C=C/C=C/C=C/C=C/C=C/C=C/[C@H](O[C@@H]2O[C@H](C)[C@@H](O)[C@H](N)[C@@H]2O)C[C@@H]2O[C@](O)(C[C@@H](O)C[C@@H](O)[C@H](O)CC[C@@H](O)C[C@@H](O)CC(=O)O[C@H]1C)C[C@H](O)[C@H]2C(=O)O    84
12) CC(C)N1CCN(c2ccc(OCC3COC(Cn4cncn4)(c4ccc(Cl)cc4Cl)O3)cc2)CC1 (stereo not drawn)    100
13) N=C(N)c1ccc(OCCCCCOc2ccc(C(=N)N)cc2)cc1 [Pentamidine isethionate]    82
14) Oc1c(Br)cc(Br)c2cccnc12    96
15) CCCCCCC(=O)CCCCCC/C=C/C[C@@H](O)[C@H](O)[C@@](N)(CO)C(=O)O    81
16) O=C1C2CC=CCC2C(=O)N1SC(Cl)(Cl)Cl (stereo not drawn)    82
17) O=c1[nH]c(=O)n([C@H]2C[C@H](O)[C@@H](CO)O2)cc1F    77
18) CCC(C)n1ncn(-c2ccc(N3CCN(c4ccc(OCC5COC(Cn6cncn6)(c6ccc(Cl)cc6Cl)O5)cc4)CC3)cc2)c1=O (stereo not drawn)    80
19) C=CCOC(Cn1ccnc1)c1ccc(Cl)cc1Cl (stereo not drawn)    73
20) O=[N+]([O-])c1c(Cl)cccc1-c1c[nH]cc1Cl    80
21) CC(=O)N1CCN(c2ccc(OCC3COC(Cn4ccnc4)(c4ccc(Cl)cc4Cl)O3)cc2)CC1 (stereo not drawn)    74

Source: paper PMC3749181
